Molecular target: pooled human IgG
measure name: Enzyme Activity Endpoint Assay (purified): scIgG (ng/µL)
// return numeric value only (unit: ng/µL, not printed)

GET /value?item= PRT-240 (protein) MEVVEVWPYGQNPNGKTEILSQTEDSESLQRLRDIEDFQAEKKMQNVVYTKWLDGVDVKDHDFRKIVDGDYAYYATPLLNGRGFYDINKDFNRDSDKCAAAVAANMFHYWLDINRDNVDRFLRQNPEKHGIIELPDGQLKLSDFLNTYESDHGYRDKSKLFDFISNAFNGPVWADKLLDNYINGYGYNKKYGRTIEDPTKNTSKFNFFKEVFNEKILTNNHQIRNQNEFSVLLSEALYTGKAIGLAYGPGGLRHSLGHIISVWGADLDADGNVVAIYVTDSDDKKLTIGDERVGLKRYKISTDDNNRLRLTTYEETHNTGAQIRGLETLDTGKYAWADYFDKTEQTGTDQAEQLEHHHHHH &field=Enzyme Activity Endpoint Assay (purified): scIgG returns 36
